System: Haemophilus influenzae ATCC 19418
Assay: antibacterial test, agar plate dilution method
Type: cell-based
Conditions: inoculum size 10⁶ cells/ml
Measured Attribute: antibacterial activity
// print number alone

What the record says about `C=CC1=C(C(=O)O)N2C(=O)[C@@H](NC(=O)/C(=N\OCC(=O)O)c3csc(N)n3)[C@H]2SC1` : antibacterial activity is 0.05

What the record says about `C=CCSC1=C(C(=O)[O-])N2C(=O)[C@@H](NC(=O)/C(=N\O)c3csc(N)n3)[C@H]2SC1.[Na+]` : antibacterial activity is 0.39

What the record says about `C=CC1=C(C(=O)O)N2C(=O)[C@@H](NC(=O)/C(=N\O)c3csc(N)n3)[C@H]2SC1` : antibacterial activity is 0.39

What the record says about `C#CCSC1=C(C(=O)[O-])N2C(=O)[C@@H](NC(=O)/C(=N\O)c3csc(N)n3)[C@H]2SC1.[Na+]` : antibacterial activity is 0.20
